# enrichment ratio annotations
B1: PhoQ; a variant is named by its letters at X, in order, P23837 (parent)
chain: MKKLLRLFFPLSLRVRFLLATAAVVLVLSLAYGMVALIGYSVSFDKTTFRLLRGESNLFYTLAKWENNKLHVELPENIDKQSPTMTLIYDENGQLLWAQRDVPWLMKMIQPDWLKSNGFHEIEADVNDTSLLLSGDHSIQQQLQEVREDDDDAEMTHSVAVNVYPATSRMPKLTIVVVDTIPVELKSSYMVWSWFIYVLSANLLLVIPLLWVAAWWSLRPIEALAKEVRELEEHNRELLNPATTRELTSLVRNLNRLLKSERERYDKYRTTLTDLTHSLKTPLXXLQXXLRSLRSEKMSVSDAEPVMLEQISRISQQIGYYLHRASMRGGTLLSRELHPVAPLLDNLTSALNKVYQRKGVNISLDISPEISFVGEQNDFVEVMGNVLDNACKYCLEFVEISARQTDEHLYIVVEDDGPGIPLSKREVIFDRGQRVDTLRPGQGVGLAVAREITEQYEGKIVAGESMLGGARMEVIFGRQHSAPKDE

Variants of: B1
testProtocol: enrichment ratio after two sorts for PhoP signalling (ratio (wild type AVST 3.29)); higher = more functional
testParameters: with PhoP (E. coli)
Over roughly 140,000 sequences, “enrichment ratio after two sorts for PhoP signalling” has its median near 0; the highest 2% begin near 11. Only a selection was taken, and the highest values are over-represented in it overall.
Answer with a number only.

Previously resolved entries follow.
> print(dat)
   mutation  reportedresult
1      QAWH            31.4
2      TGWH            19.8
3      ATMV            9.43
4      TLYV           0.293
5      ATTG              12
6      TVTC            14.5

Prompt: Give the reported enrichment ratio for this variant. "ATCG"
Response: 16.1

Prompt: Give the reported enrichment ratio for this variant. "ATVG"
Response: 6.86

Prompt: Give the reported enrichment ratio for this variant. "ATIV"
Response: 8.37

Prompt: Give the reported enrichment ratio for this variant. "TSTC"
Response: 17.2

Prompt: Give the reported enrichment ratio for this variant. "AMLL"
Response: 14.2

Prompt: Give the reported enrichment ratio for this variant. "TEWH"
Response: 35.2
